Target: FAP (Homo sapiens)
Construct: Target cells: WI-38 cells (typically 1000-20,000 cells per well); endogenous in cells; host or cells: WI-38 cells
Sequence (Q12884 1-760): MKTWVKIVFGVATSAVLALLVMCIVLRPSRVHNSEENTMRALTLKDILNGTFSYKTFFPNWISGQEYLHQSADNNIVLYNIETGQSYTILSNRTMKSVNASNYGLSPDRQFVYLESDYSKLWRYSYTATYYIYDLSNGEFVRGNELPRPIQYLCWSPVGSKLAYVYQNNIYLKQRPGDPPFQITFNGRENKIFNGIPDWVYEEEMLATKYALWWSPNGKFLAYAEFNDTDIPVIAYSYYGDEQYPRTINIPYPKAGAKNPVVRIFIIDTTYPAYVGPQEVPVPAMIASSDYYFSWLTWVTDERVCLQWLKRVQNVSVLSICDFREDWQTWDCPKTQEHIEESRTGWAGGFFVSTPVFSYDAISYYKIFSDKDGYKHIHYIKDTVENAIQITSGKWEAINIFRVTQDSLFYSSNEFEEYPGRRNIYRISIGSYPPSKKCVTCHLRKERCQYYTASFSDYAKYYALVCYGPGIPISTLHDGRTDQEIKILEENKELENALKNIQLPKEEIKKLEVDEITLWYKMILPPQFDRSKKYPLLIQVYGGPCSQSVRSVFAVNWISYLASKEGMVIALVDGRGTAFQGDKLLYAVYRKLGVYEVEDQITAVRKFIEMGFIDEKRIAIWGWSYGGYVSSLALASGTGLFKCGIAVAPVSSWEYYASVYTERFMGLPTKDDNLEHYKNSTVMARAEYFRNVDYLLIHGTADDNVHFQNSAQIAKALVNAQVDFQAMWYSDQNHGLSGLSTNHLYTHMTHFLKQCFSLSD
Experiment: Antibody dependent cellular cytotoxicity (ADCC) reporter assay
Assay type: cell-based
Design: key: Inactive = pEC50 < 5
Settings: WI-38 target cells; Jurkat FcγRIIIa NFAT-luciferase reporter cells; with anti-cotinine antibody (SEQ ID NO: 11/12); 12-18 hours; average if more than one run
reportedProperty: ADCC Reporter Assay pEC50

samplesmiles=CN(CCNC(=O)CCOCCOCCOCCOCCOCCOCCOCCOCCOCCOCCOCCOCCNC(=O)[C@H]1CC(=O)N(C)[C@@H]1c1cccnc1)c1ccc2nccc(C(=O)NCC(=O)N3CC(F)(F)C[C@H]3C#N)c2c1 testsystem="FAP (Homo sapiens)" reportedproperty="ADCC Reporter Assay pEC50" reportedresult=Inactive
samplesmiles=CN(CCNC(=O)CCCO[C@H]1CC[C@H](OCCNC(=O)[C@H]2CC[C@H](NC(=O)CCCO[C@H]3CC[C@H](OCCNC(=O)[C@H]4CC(=O)N(C)[C@@H]4c4cccnc4)CC3)CC2)CC1)c1ccc2nccc(C(=O)NCC(=O)N3CC(F)(F)C[C@H]3C#N)c2c1 testsystem="FAP (Homo sapiens)" reportedproperty="ADCC Reporter Assay pEC50" reportedresult=Inactive
samplesmiles=CN(CCNC(=O)[C@H]1CC[C@H](NC(=O)CCCO[C@H]2CC[C@H](OCCNC(=O)[C@H]3CC(=O)N(C)[C@@H]3c3cccnc3)CC2)CC1)c1ccc2nccc(C(=O)NCC(=O)N3CC(F)(F)C[C@H]3C#N)c2c1 testsystem="FAP (Homo sapiens)" reportedproperty="ADCC Reporter Assay pEC50" reportedresult=Inactive
